The origin of these recorded values is paper PMC9866541.

# measured_target: rCPB2.8 (Leishmania mexicana)
# Construct: recombinant enzymes (r) lacking the C-terminal region
# Sequence (P36400 126-343): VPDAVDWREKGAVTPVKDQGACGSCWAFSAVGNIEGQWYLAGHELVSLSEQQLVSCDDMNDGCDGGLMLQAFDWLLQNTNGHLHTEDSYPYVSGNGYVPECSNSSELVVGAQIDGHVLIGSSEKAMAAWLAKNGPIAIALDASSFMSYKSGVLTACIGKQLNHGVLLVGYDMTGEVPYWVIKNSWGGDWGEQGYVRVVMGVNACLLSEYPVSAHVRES
# experiment_description: Enzyme kinetics and mechanism of inhibition of rCPB2.8
# Type: biochemical
# condition_label: γKi
measured_property: Ki

O=c1c(O)c(-c2ccc3c(c2)OCO3)oc2ccccc12 [Compound f12b] | 510 nM

Batch lookup, Ki per entry.
1. COc1ccc(-c2oc3ccccc3c(=O)c2O)cc1 [f12a]
2. CN(C)c1ccc(/C=C/C(=O)c2cc(Cl)ccc2O)cc1

Marked response:
1. 250 nM
2. 1150 nM

---

# measured_target: rCPB2.8 (Leishmania mexicana)
# Construct: recombinant enzymes (r) lacking the C-terminal region
# experiment_description: Enzyme kinetics and mechanism of inhibition of rCPB2.8
# Format: biochemical
# condition_label: βKi
measured_property: Ki (µM)
Give bare numbers, in µM.

O=c1c(O)c(-c2ccc3c(c2)OCO3)oc2ccccc12 [Compound f12b] | 1.17

Batch lookup, Ki per entry.
1. CN(C)c1ccc(/C=C/C(=O)c2cc(Cl)ccc2O)cc1 [Compound 3c]
2. COc1ccc(-c2oc3ccccc3c(=O)c2O)cc1 [f12a]

Marked response:
[0.55, 3.65]
